# testedSystem: human MuSK (Homo sapiens, UniProt O15146)
# Construct: DNA corresponding to the extracellular portion (amino acids 1-493) was amplified by a PCR method; made in house; host or cells: Expi293F cells
# Sequence (O15146 24-493): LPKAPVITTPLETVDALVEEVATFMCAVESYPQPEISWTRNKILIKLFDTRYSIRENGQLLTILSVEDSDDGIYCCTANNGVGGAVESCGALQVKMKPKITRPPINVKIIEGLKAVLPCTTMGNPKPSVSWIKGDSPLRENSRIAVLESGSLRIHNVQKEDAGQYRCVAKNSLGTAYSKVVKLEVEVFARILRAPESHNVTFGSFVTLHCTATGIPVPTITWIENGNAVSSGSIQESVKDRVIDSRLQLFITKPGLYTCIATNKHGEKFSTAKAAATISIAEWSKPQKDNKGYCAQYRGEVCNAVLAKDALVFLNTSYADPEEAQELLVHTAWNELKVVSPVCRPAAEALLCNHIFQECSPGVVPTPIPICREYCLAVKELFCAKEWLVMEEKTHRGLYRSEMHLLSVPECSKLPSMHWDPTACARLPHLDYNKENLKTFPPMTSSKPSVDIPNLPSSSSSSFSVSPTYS
# assayProtocol: SPR binding activity test to human MuSK (Biacore)
# conditionNotes: human MuSK, peptide homodimers
Numbered stars: 1 amine (or outer) side, 2 acyl side, 3 side chain; on linkers, the order of the positions; unused ones are H or OH. Bridge positions count the residues as written; N and C are the ends. Square brackets hold non-standard residues; d marks the D form. I, II: the chains in the order shown. X1 = O=C(CCN1C(=O)CC([*:1])C1=O)NCCOCCOCCOCCOCCOCCOCCOCCOCCOCCOCCOCCNC(=O)CCN1C(=O)CC([*:2])C1=O; X2 = O=C(CCN1C(=O)CC([*:1])C1=O)NCCCOCCOCCOCCCNC(=O)CCN1C(=O)CC([*:2])C1=O
Below: a set of entries, each annotated with reported koff.
Report as a plain number; the unit s⁻¹ is understood.

substance	koff (s⁻¹)
I: Ac-[dY]LPEFSWPESFVLFLRQRQRQLGRGAEC-NH2 / II: Ac-[dY]LPEFSWPESFVLFLRQRQRQLGRGAEC-NH2 (linker I:28-II:28 via X1) [MuSK1Ac Term PEG11 dimer]	0.0018
I: Ac-[dY]LPEFSWPESFVLFLRQRQRQLGRGAEC-NH2 / II: Ac-[dY]LPEFSWPESFVLFLRQRQRQLGRGAEC-NH2 (linker I:28-II:28 via X2) [MuSK1Ac Term PEG3 dimer]	0.0012
I: Ac-C[dY]LPEFSWPESFVLFLRQRQRQLGRGAE-NH2 / II: Ac-C[dY]LPEFSWPESFVLFLRQRQRQLGRGAE-NH2 (linker I:1-II:1 via X2) [MuSK1Ac PEG3 dimer]	0.0013

In plain terms, I: Ac-C[dY]LPEFSWPESFVLFLRQRQRQLGRGAE-NH2 / II: Ac-C[dY]LPEFSWPESFVLFLRQRQRQLGRGAE-NH2 (linker I:1-II:1 via X1) [MuSK1Ac PEG11 dimer] has a documented koff of 0.001

----------
# testedSystem: human MuSK (Homo sapiens)
# Construct: DNA corresponding to the extracellular portion (amino acids 1-493) was amplified by a PCR method; made in house; host or cells: Expi293F cells
# assayProtocol: SPR binding activity test to human MuSK (Biacore)
# conditionNotes: human MuSK, peptide homodimers
Numbered stars: 1 amine (or outer) side, 2 acyl side, 3 side chain; on linkers, the order of the positions; unused ones are H or OH. Bridge positions count the residues as written; N and C are the ends. Square brackets hold non-standard residues; d marks the D form. I, II: the chains in the order shown. X1 = O=C(CCN1C(=O)CC([*:1])C1=O)NCCOCCOCCOCCOCCOCCOCCOCCOCCOCCOCCOCCNC(=O)CCN1C(=O)CC([*:2])C1=O; X2 = O=C(CCN1C(=O)CC([*:1])C1=O)NCCCOCCOCCOCCCNC(=O)CCN1C(=O)CC([*:2])C1=O
parameter: kon (M⁻¹ s⁻¹)
Report as a plain number; the unit M⁻¹ s⁻¹ is understood.

Recorded results for 3 substances are shown here.
substance	parameter	resultUnit	val
I: Ac-C[dY]LPEFSWPESFVLFLRQRQRQLGRGAE-NH2 / II: Ac-C[dY]LPEFSWPESFVLFLRQRQRQLGRGAE-NH2 (linker I:1-II:1 via X1) [MuSK1Ac PEG11 dimer]	kon	M⁻¹ s⁻¹	660000
I: Ac-[dY]LPEFSWPESFVLFLRQRQRQLGRGAEC-NH2 / II: Ac-[dY]LPEFSWPESFVLFLRQRQRQLGRGAEC-NH2 (linker I:28-II:28 via X2) [MuSK1Ac Term PEG3 dimer]	kon	M⁻¹ s⁻¹	200000
I: Ac-[dY]LPEFSWPESFVLFLRQRQRQLGRGAEC-NH2 / II: Ac-[dY]LPEFSWPESFVLFLRQRQRQLGRGAEC-NH2 (linker I:28-II:28 via X1) [MuSK1Ac Term PEG11 dimer]	kon	M⁻¹ s⁻¹	520000

Could you now look at the following substance, please?
In plain terms, I: Ac-C[dY]LPEFSWPESFVLFLRQRQRQLGRGAE-NH2 / II: Ac-C[dY]LPEFSWPESFVLFLRQRQRQLGRGAE-NH2 (linker I:1-II:1 via X2) [MuSK1Ac PEG3 dimer] has a documented kon of 300000
